Data origin, for the record: patent US20210070748A1

Biological target: TEC (Homo sapiens)
Sequence (P42680 whole entry): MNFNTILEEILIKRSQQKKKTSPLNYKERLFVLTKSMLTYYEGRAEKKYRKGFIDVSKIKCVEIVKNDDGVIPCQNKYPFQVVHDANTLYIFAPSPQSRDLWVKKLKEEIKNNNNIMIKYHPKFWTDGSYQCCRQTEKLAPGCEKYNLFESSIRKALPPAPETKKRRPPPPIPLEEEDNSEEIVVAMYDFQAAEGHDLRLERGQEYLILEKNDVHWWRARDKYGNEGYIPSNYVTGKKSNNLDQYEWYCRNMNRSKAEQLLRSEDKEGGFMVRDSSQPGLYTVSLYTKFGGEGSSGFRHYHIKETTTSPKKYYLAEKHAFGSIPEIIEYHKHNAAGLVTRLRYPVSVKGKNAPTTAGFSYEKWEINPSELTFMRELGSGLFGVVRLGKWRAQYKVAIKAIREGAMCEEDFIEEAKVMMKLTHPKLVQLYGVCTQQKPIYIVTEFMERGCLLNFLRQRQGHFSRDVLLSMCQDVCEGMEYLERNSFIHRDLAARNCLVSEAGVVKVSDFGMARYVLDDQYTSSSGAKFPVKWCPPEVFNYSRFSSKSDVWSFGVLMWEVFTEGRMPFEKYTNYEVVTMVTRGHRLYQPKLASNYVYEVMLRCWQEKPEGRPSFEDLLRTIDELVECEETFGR
Assay: Inhibition of a panel of kinases, in vitro HotSpot kinase assay: TEC
Assay type: biochemical
Conditions: D-compounds panel data; 1 μM ATP
pIC50: −log10 of the molar value.
This section presents molecules with their documented pIC50 values.

[[record]]
test_smiles = "C[C@@H]1[C@H](NC(=O)c2ccc(C(N)=O)cc2)CCCN1c1cnc(C(N)=O)c(Nc2cnn(C)c2)n1"
measurement_type = "pIC50"
experimental_value = "≥ 8.00"

[[record]]
test_smiles = "C[C@@H]1[C@H](NC(=O)c2ccc(C(C)(C)C#N)cc2)CCCN1c1cnc(C(N)=O)c(Nc2ccc(OC3CCN(C)CC3)cc2)n1"
measurement_type = "pIC50"
experimental_value = "≥ 8.00"

[[record]]
test_smiles = "C[C@@H]1[C@H](NC(=O)c2ccc(C(C)(C)C)cc2)CCCN1c1cnc(C(N)=O)c(Nc2ccc(OC3CCN(C)CC3)cc2)n1"
measurement_type = "pIC50"
experimental_value = "7.00 to 8.00"

[[record]]
test_smiles = "C[C@H]1CC[C@@H](NC(=O)c2ccc(C3CC3)cc2)CN1c1cnc(C(N)=O)c(Nc2ccc(N3CCN(C)CC3)cc2)n1"
measurement_type = "pIC50"
experimental_value = "6.00 to 7.00"

[[record]]
test_smiles = "C[C@@H]1[C@H](NC(=O)c2ccc(C(C)(C)O)cc2)CCCN1c1nnc(C(N)=O)c(Nc2cnn(C)c2)n1"
measurement_type = "pIC50"
experimental_value = "≥ 8.00"

[[record]]
test_smiles = "Cn1cc(Nc2nc(N3C[C@@H](NC(=O)c4ccc(C5CC5)cc4)CC(F)(F)C3)cnc2C(N)=O)cn1"
measurement_type = "pIC50"
experimental_value = "5.00 to 6.00"


Kindly review the next molecule as well.
The reported pIC50 of the molecule C[C@@H]1[C@H](NC(=O)c2ccc(C3CC3)cc2F)CCCN1c1cnc(C(N)=O)c(Nc2cnn(C)c2)n1 was 7.00 to 8.00

###

Target: ITK (Homo sapiens)
Sequence (Q08881 whole entry): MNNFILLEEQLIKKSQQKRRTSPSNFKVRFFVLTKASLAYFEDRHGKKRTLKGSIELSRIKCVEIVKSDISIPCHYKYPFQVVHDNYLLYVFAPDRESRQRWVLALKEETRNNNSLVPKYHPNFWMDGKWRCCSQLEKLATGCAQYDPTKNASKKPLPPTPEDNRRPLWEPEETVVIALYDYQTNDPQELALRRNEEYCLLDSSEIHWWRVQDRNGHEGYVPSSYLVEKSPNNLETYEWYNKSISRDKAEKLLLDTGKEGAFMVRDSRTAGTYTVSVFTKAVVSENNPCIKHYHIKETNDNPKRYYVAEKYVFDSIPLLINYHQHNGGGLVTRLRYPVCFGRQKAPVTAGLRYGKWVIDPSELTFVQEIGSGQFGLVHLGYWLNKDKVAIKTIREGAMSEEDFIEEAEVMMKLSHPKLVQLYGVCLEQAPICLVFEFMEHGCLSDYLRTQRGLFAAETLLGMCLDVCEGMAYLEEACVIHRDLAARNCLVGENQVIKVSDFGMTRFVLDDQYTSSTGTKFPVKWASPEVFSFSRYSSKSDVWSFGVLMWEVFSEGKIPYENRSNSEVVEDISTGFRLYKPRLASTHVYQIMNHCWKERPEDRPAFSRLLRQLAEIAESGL
Experiment: Inhibition of a panel of kinases, in vitro HotSpot kinase assay: ITK
Type: biochemical
Settings: D-compounds panel data; 1 μM ATP
pIC50: −log10 of the molar value.
Overview of reported pIC50 across a group of compounds:

Sample records with pIC50:
[[record]]
compound = "C[C@@H]1[C@H](NC(=O)c2ccc(C3CC3)cc2F)CCCN1c1cnc(C(N)=O)c(Nc2ccc(S(C)(=O)=O)cc2)n1"
experimental_value = "6.00 to 7.00"

[[record]]
compound = "C[C@@H]1[C@H](NC(=O)N(C)C)CCCN1c1cnc(C(N)=O)c(Nc2ccc3cccnc3c2)n1"
experimental_value = "5.00 to 6.00"

[[record]]
compound = "C[C@@H]1[C@H](NC(=O)c2ccc(SC(F)(F)F)cc2)CCCN1c1cnc(C(N)=O)c(Nc2cnn(C)c2)n1"
experimental_value = "5.00 to 6.00"


Considering C[C@@H]1[C@H](NC(=O)c2ccc(C3CC3)nc2)CCCN1c1cnc(C(N)=O)c(Nc2ccc(N3CCN(C)CC3)cc2)n1 , its pIC50 with ITK (Homo sapiens) was recorded as 7.00 to 8.00

The recorded pIC50 with ITK (Homo sapiens) for C[C@@H]1[C@H](NC(=O)c2ccc(C(C)(O)C(F)(F)F)cc2)CCCN1c1cnc(C(N)=O)c(Nc2cnn(C)c2)n1 (single isomer, unassigned) [Example D-214] was 6.00 to 7.00

pIC50 of C[C@@H]1[C@H](NC(=O)c2ccc(S(C)(=O)=O)cc2)CCCN1c1cnc(C(N)=O)c(Nc2ccc(N3CCN(C)CC3)cc2)n1 , assay on ITK (Homo sapiens), is 7.00 to 8.00

###

Target: UniProt:P52333
Sequence (P52333 1-1124): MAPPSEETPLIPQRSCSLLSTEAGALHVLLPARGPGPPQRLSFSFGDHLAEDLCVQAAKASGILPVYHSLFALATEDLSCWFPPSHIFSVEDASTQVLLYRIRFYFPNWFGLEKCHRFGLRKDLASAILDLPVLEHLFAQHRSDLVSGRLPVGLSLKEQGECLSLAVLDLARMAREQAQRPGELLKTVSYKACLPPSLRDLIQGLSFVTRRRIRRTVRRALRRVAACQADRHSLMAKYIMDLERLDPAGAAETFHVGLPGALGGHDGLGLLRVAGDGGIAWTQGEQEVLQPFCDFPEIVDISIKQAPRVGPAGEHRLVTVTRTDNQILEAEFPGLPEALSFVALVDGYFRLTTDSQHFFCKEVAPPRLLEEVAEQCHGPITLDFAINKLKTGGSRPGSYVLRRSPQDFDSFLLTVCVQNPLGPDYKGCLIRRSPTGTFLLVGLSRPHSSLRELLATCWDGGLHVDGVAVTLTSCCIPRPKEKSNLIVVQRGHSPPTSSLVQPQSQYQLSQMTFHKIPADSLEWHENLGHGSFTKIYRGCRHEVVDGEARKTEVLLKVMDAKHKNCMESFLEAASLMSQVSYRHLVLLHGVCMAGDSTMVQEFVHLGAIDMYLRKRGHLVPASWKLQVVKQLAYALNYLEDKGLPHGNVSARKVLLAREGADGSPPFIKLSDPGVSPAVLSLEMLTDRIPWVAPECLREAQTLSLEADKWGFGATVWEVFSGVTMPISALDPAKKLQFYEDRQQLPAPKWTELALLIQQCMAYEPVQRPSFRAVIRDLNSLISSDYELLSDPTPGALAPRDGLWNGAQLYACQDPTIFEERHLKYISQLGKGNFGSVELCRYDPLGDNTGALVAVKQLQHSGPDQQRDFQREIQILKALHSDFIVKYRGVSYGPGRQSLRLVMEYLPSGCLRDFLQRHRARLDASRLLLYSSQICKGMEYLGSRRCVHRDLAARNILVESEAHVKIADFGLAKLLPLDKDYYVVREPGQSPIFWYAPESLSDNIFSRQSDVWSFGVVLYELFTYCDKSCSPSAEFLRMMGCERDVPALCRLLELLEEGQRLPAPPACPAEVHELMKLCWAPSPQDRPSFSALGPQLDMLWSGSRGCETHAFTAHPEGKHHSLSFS
Test: Inhibition of a panel of kinases, in vitro HotSpot kinase assay: JAK3
Type: biochemical
Conditions: Table 13, A compounds; 1 μM ATP; read-out: IC50 JAK3
MEASUREMENT TYPE: IC50

[[record]]
test_smiles = "C[C@@H]1[C@H](NC(=O)c2ccc(C3CC3)cc2F)CCCN1c1cnc(C(N)=O)c(Nc2ccc(CN3CCN(C)CC3)cc2)n1"
measurement_type = "IC50"
experimental_value = "100 to 1000 nM"


The compound identified as Cn1cc(Nc2nc(N3CCC[C@@H](n4ccc5cc(C6CC6)ccc5c4=O)C3)cnc2C(N)=O)cn1 registered its IC50 at > 10000 nM

get_value(item= C[C@@H]1[C@H](NC(=O)c2ccc(C3CC3)cc2)CCCN1c1cnc(C(N)=O)c(Nc2ccc(N3CCN(C)CC3)cc2)n1 , readout=IC50) returns 1000 to 10000 nM

Value of measured IC50 for the entry C[C@@H]1[C@H](NC(=O)c2ccc(C3CC3)cc2F)CCCN1c1cnc(C(N)=O)c(Nc2ccc(N3CCN(C)CC3)c(F)c2)n1 : 1000 to 10000 nM

Looking up C[C@@H]1[C@H](NC(=O)c2ccc(C3CC3)cc2F)CCCN1c1cnc(C(N)=O)c(Nc2ccc(N3CCN(C4CCCC4)CC3)cc2)n1 , I found its IC50 recorded as 100 to 1000 nM

Form field IC50, entry C[C@@H]1[C@H](NC(=O)N(C)C)CCCN1c1cnc(C(N)=O)c(Nc2ccc(N3CCN(C)CC3)cc2)n1 : 100 to 1000 nM

###

Biological target: JAK3 (Homo sapiens)
Test: Inhibition of a panel of kinases, in vitro HotSpot kinase assay: JAK3
Type: biochemical
Settings: D-compounds panel data; 1 μM ATP; read-out: IC50 JAK3
// IC50 lookup, one value per entry

[[record]]
compound = "CN1CCN(c2ccc(Nc3nc(N4CCC[C@@H](n5ccc6cc(C7CC7)cc(F)c6c5=O)C4)cnc3C(N)=O)cc2)CC1"
measurement_type = "IC50"
experimental_value = "100 to 1000 nM"

[[record]]
compound = "C[C@@H]1[C@H](NC(=O)c2ccc(C3CC3)cc2)CCCN1c1cnc(C(N)=O)c(Nc2ccc(N3CCC4(CC3)COC4)cc2)n1"
measurement_type = "IC50"
experimental_value = "100 to 1000 nM"

[[record]]
compound = "C[C@@H]1[C@H](NC(=O)c2cc3n(n2)CCC3)CCCN1c1cnc(C(N)=O)c(Nc2cnn(C)c2)n1"
measurement_type = "IC50"
experimental_value = "1000 to 10000 nM"

[[record]]
compound = "C[C@@H]1[C@H](NC(=O)c2ccc(C3CC3)cc2)CCCN1c1nnc(C(N)=O)c(Nc2cnn(C)c2)n1"
measurement_type = "IC50"
experimental_value = "100 to 1000 nM"

[[record]]
compound = "CC(=O)N1CCC(n2cc(Nc3nc(N4CCC[C@@H](NC(=O)c5ccc(C6CC6)cc5)[C@H]4C)cnc3C(N)=O)cn2)CC1"
measurement_type = "IC50"
experimental_value = "1000 to 10000 nM"

[[record]]
compound = "C[C@@H]1[C@H](NC(=O)N(C)C)CCCN1c1cnc(C(N)=O)c(Nc2ccc(N3CCN(C)CC3)cc2)c1"
measurement_type = "IC50"
experimental_value = "> 10000 nM"

[[record]]
compound = "C[C@@H]1[C@H](NC(=O)N(C)C)CCCN1c1cnc(C(N)=O)c(Nc2ccc(OC3CCN(C)CC3)cc2)n1"
measurement_type = "IC50"
experimental_value = "1000 to 10000 nM"

[[record]]
compound = "C[C@@H]1[C@H](NC(=O)c2ccc(C3CC3)cc2F)CCCN1c1cnc(C(N)=O)c(Nc2ccc(S(=O)(=O)N3CCCC3)cc2)n1"
measurement_type = "IC50"
experimental_value = "> 10000 nM"


Sure, the documented IC50 for C[C@@H]1[C@H](NC(=O)c2ccc(C3CC3)cc2)CCCN1c1cnc(C(N)=O)c(Nc2cc(C3CCOCC3)ns2)n1 is 100 to 1000 nM

In plain terms, C[C@@H]1[C@H](NC(=O)c2ccc(C3CC3)cc2)CCCN1c1cnc(C(N)=O)c(Nc2ccc(N3CCN(C)CC3)c(F)c2)n1 has a documented IC50 of 1000 to 10000 nM

Sample C[C@@H]1[C@H](NC(=O)c2ccc(C(C)(C)O)c(F)c2)CCCN1c1cnc(C(N)=O)c(Nc2cnn(C)c2)n1 ; IC50 observed: 100 to 1000 nM

The compound listed as Cn1cc(Nc2nc(N3CCCC4(C3)CN(c3ccc(C5CC5)cc3)C(=O)O4)cnc2C(N)=O)cn1 (stereo not shown) has a reported IC50 of 1000 to 10000 nM

Documented IC50 of C[C@@H]1[C@H](NC(=O)c2ccc(C3CC3)cc2)CCCN1c1cnc(C(N)=O)c(Nc2cnn(C3CC3)c2)n1 : > 10000 nM
